Data origin, for the record: PubChem BioAssay

# assay name: inhibitors of E-selectin induction by TNFa, primary screen, imaging, HUVEC, immunofluorescence, MLSMR starter and 10KST1 sets (AID 487);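 further: signal is fraction of cell area covered by stained E-selectin grains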
# run conditions: HUVEC TNFalpha-induced E-selectin immunofluorescence imaging, at 2 µM; stronger effect = higher value
Lab note: anything with inhibition at or over 30% counts as 1; the rest go in 0.

compound	discrete label
O=C(NCCC1=CCCCC1)c1ccc(=O)oc1	1
Cn1c(=O)c2c(nc(Br)n2CCSc2nc3ccccc3o2)n(C)c1=O	1
CCOC(=O)C1=C(c2ccccc2)NC(=O)NC1c1ccc(N(C)C)cc1 (stereo unspecified)	0
O=C(c1ccc(CSCc2ccccc2F)o1)N1CCN(c2ccc(N3CCOCC3)nn2)CC1	0
COc1cccc(C(c2nnnn2CCc2ccccc2)N2CCN(c3ccccc3)CC2)c1OC (stereo unspecified)	1
Cc1cc(C)c(S(=O)(=O)Nc2cccnc2)c(C)c1	0
